Sourced from ChEMBL document CHEMBL1944539

Test system: HCT-116
Experiment: Cytotoxicity against human HCT116 cells assessed as cell growth at 10 uM
Format: cell-based
Conditions: hct-116, 10 µM
Each entry below carries its reported Activity.
Result Type: Activity (%)

molecule=COC(=O)c1cc(C(N)=O)nc2cc(N)cc(Cl)c12 measured_result=98.84
molecule=COC(=O)c1cc(C(N)=O)nc2cc(NC(C)=O)cc(Cl)c12 measured_result=104.18
molecule=COC(=O)c1cc2c3c(n1)C(=O)C(=O)C(Cl)=C3N(C)C2=O measured_result=104.56
molecule=COC(=O)c1cc(C(=O)OC)c2c(Cl)cc(N)c(Cl)c2n1 measured_result=100.36
molecule="CN1C(=O)c2cc(C(N)=O)nc3c(N)c(Cl)c(N)c1c23 [AMMOSAMIDE B]" measured_result=101.05
molecule=CN(C)C(=O)c1cc2c3c(c(Cl)cc(Cl)c3n1)N(C)C2=O measured_result=102.47
molecule=CN1C(=O)c2cc(C(=O)NCc3ccccc3)nc3c(Cl)cc(Cl)c1c23 measured_result=103.06
molecule=COC(=O)c1cc(C(=O)OC)c2c(Cl)cc(NC(C)=O)cc2n1 measured_result=103.44
molecule=COC(=O)c1cc(C(=O)OC)c2c(Cl)cc(N)cc2n1 measured_result=108.2
molecule=CN1C(=O)c2cc(C(N)=O)nc3c(Cl)cc(Cl)c1c23 measured_result=107
molecule=COC(=O)c1cc(C(=O)OC)c2c(Cl)cc(N(C)C)cc2n1 measured_result=104.18

----------
So I've got IC50 readings for Ribosyldihydronicotinamide dehydrogenase [quinone] (Homo sapiens), take a look.
Result Type: IC50

molecule=COC(=O)c1cc(C(=O)OC)c2c(N)c(Cl)cc(Cl)c2n1 result_type=IC50 measured_result="22.1 µM"
molecule=COC(=O)c1cc(C(N)=O)nc2cc(N)cc(Cl)c12 result_type=IC50 measured_result="1.1 µM"
molecule=CN(C)C(=O)c1cc2c3c(c(Cl)cc(Cl)c3n1)N(C)C2=O result_type=IC50 measured_result="25.2 µM"
molecule=NC(=O)c1cc(C(N)=O)c2cc(I)c(N)cc2n1 result_type=IC50 measured_result="1.5 µM"
molecule=COC(=O)c1cc(C(=O)OC)c2c(Cl)cc(N)c(Cl)c2n1 result_type=IC50 measured_result="5.6 µM"
molecule="CN1C(=O)c2cc(C(N)=O)nc3c(N)c(Cl)c(N)c1c23 [AMMOSAMIDE B]" result_type=IC50 measured_result="0.061 µM"
molecule=CN1C(=O)c2cc(C(N)=O)nc3c(Cl)cc(Cl)c1c23 result_type=IC50 measured_result="5.8 µM"

----------
Tested on: SN12C
Experiment: Cytotoxicity against human SN12C cells assessed as cell growth at 10 uM
Format: cell-based
Result Type: Activity (%)

compound=COC(=O)c1cc2c3c(n1)C(=O)C(=O)C(Cl)=C3N(C)C2=O endpoint_unit=% measured_result=102.66
compound=COC(=O)c1cc(C(=O)OC)c2c(Cl)cc(N)cc2n1 endpoint_unit=% measured_result=102.78
compound=COC(=O)c1cc(C(=O)OC)c2c(Cl)cc(N)c(Cl)c2n1 endpoint_unit=% measured_result=99.49
compound=CN1C(=O)c2cc(C(N)=O)nc3c(Cl)cc(Cl)c1c23 endpoint_unit=% measured_result=101.49
compound=CN(C)C(=O)c1cc2c3c(c(Cl)cc(Cl)c3n1)N(C)C2=O endpoint_unit=% measured_result=106.07
compound=COC(=O)c1cc(C(=O)OC)c2c(Cl)cc(NC(C)=O)cc2n1 endpoint_unit=% measured_result=109.64
compound=COC(=O)c1cc(C(N)=O)nc2cc(N)cc(Cl)c12 endpoint_unit=% measured_result=102.63
compound=COC(=O)c1cc(C(N)=O)nc2cc(NC(C)=O)cc(Cl)c12 endpoint_unit=% measured_result=109
compound=COC(=O)c1cc(C(=O)OC)c2c(Cl)cc(N(C)C)cc2n1 endpoint_unit=% measured_result=113.39
compound="CN1C(=O)c2cc(C(N)=O)nc3c(N)c(Cl)c(N)c1c23 [AMMOSAMIDE B]" endpoint_unit=% measured_result=98.89
compound=CN1C(=O)c2cc(C(=O)NCc3ccccc3)nc3c(Cl)cc(Cl)c1c23 endpoint_unit=% measured_result=107.48
